molecular target: T1, human CI-M6PR domain1-3His6 (human, UniProt P11717 41-467); assay: BLI, association pH 7.4, dissociation at pH 6.5, mean of local fits
T1 construct: Recombinant, made in HEK293 cells; Biotinylated with NHS-PEG4-biotin for BLI; unlabelled in SEC-MALLS and crystallisation; also called CI-M6PR hDom1-3His6; hDom1-3His6
# reported koff; entries follow
Answer in s⁻¹, number only, no unit symbol.

Worked examples follow.
Query string: Which koff value belongs to humanized variant VHH7h3 (VHH, Made in E. coli, IMAC purified; tag not specified) VHH: DVQLVESGGGLVQPGGSLRLSCAASGIIFSDNRMDWYRQAPGKQREWVATLASYGWKTYADSVKGRFTISRDNTKNTVYLQMNSLRPEDTAVYYCKASSPVLNDIWGQGTLVTVSS ?
Result string: 0.011

Query string: Which koff value belongs to humanized variant VHH7h1 (VHH, Made in E. coli, IMAC purified; tag not specified) VHH: EVQLVESGGGLVQPGGSLRLSCAASGIIFSDNRMDWYRQAPGKQREWVATLASYGWKTYADSVKGRFTISRDNSKNTVYLQMNSLRPEDTAVYYCKASSPVLNDIWGQGTLVTVSS ?
Result string: 0.0097

---
Query string: Which koff value belongs to anti-CI-M6PR VHH7 (VHH, Purified by IMAC, so tagged; Labelled with Alexa Fluor 488 (NHS ester) in the imaging experiments) VHH: QVQLQESGGGLVQPGGSLRLSCAASGIIFSDNRMDWYRQAPGKQREWVATLASYGWKTYADSVKGRFTISRDNTKNTVYLRMNSLKPEDTAVYYCKASSPVLNDIWGQGTQVTVSS ?
Result string: 0.0091

Query string: Which koff value belongs to humanized variant VHH8h1 (VHH, Made in E. coli, IMAC purified; tag not specified) VHH: EVQLVESGGGLVQPGGSLRLSCAASGRTFNTYNWGWFRQAPGKEREFVAAIRWSSSKTSYADSVKGRFTISRDNSKNTVYLQMNSLRPEDTAVYYCAASIVDFTTNPSHFGSWGQGTLVTVSS ?
Result string: 0.00053

Query string: Which koff value belongs to humanized variant VHH8h3 (VHH, Made in E. coli, IMAC purified; tag not specified) VHH: DVQLVESGGGLVQAGGSLRLSCAASGRTFNTYNWGWFRQAPGKEREFVAAIRWSSSKTSYADSVKGRFTISRDNSKNTVYLQMNSLRPEDTAVYYCAASIVDFTTNPSHFGSWGQGTLVTVSS ?
Result string: 0.0022
